Tested on: PC-3 prostate
Experiment: NCI tumour cell line growth inhibition, 48 h
# Lookup of reported TGI keyed by entry
Just the number in µM, nothing appended.

Study these solved cases before continuing.
[[record]]
compound = "O=C1C(Cl)C(c2cccc(Br)c2)N1c1c(O)c(Cl)cc(Br)c1Cl (configuration not stated)"
readout_name = "TGI"
unit_of_measurement = "µM"
numeric_readout = 75.1

[[record]]
compound = "Cc1cccc2c(N)c3cccc(C(=O)NCCN4CCOCC4)c3nc12"
readout_name = "TGI"
unit_of_measurement = "µM"
numeric_readout = 7.19


input: Report TGI for `O=C1Cc2c(-c3ccccc3)cc(-c3ccc4ccccc4c3)nc2-c2ccccc2N1`
output: 45.5

input: Report TGI for `C=C(CN(C)C)C(=O)c1ccc(OC)cc1`
output: 28.5

input: Report TGI for `N=C(N)c1ccc(-c2ccc(-c3ccc(Cl)c(Cl)c3)o2)nc1`
output: 3.29

input: Report TGI for `CNC(=O)c1c(NC(=O)c2ccc(C(C)C)cc2)sc2c1CCC(=O)C2`
output: 1.32

input: Report TGI for N#CC1C(=O)NC2=C(CCOc3c2ccc2ccccc32)C1c1ccc(F)cc1 (configuration not stated)
output: 54.8

input: Report TGI for `CCNC(=O)c1ccc2c(c1)nc(-c1ccc(Cl)cc1)n2-c1cc(C(C)(C)C)[nH]n1`
output: 48.8

input: Report TGI for `Cc1ccc(C(=O)c2[nH]c(Nc3ccc(Cl)cc3)c(C(=S)Nc3ccccc3)c2N)cc1`
output: 23.3

input: Report TGI for Nc1nc(Cl)nc2c1ncn2C1CCC(COP(=O)(O)OP(=O)(O)OP(=O)(O)O)O1 (configuration not stated)
output: 64.3

input: Report TGI for `O=C(Nc1ccc(O)c(NS(=O)(=O)c2ccc(F)cc2)c1)c1ccc(-c2ccccc2)cc1`
output: 16.7

====

Test system: NCI/ADR-RES ovarian
Assay: NCI tumour cell line growth inhibition, 48 h; in the data active means GI50 below about 0.43 µM; inactive means the rest
// classify into true for active, false for inactive

These recorded examples may help you get a feel for the data.
[[record]]
molecule = "CC#CC(=O)N[C@H]1CCCN(c2c(F)cc(C(N)=O)c3[nH]c(C)c(C)c23)C1"
group_label = "false"

[[record]]
molecule = "COc1cc(/C=N/Nc2ncnc3c2cnn3Cc2ccccc2)ccc1O"
group_label = "false"

[[record]]
molecule = "Nc1ncnc2c1c(C(=O)NO)cn2C1OC(CO)C(O)C1O (stereo not given)"
group_label = "true"

[[record]]
molecule = "c1ccc(C2=NN[C@H](c3cn(-c4ccccc4)nc3-c3ccccc3)C2)cc1"
group_label = "false"

[[record]]
molecule = "CC(C)NCCCCCNc1cc(O)cc2cccnc12"
group_label = "false"

[[record]]
molecule = "COc1cc(CCNc2nc3cc(N)cc(N)c3nc2-c2ccccc2)cc(OC)c1"
group_label = "false"


Consider the additional molecule presented here.
input: # outcome recorded in this test, key = `O=C(Nc1ccc(O)c(NS(=O)(=O)c2ccc(F)cc2)c1)c1ccc(-c2ccccc2)cc1`
output: false

====

Test system: HOP-92 NSCLC
Experiment: NCI tumour cell line growth inhibition, 48 h
# Lookup of reported TGI keyed by entry

Study these solved cases before continuing.
[[record]]
compound = "CCOc1ccc(N=Nc2c(-c3ccccc3)nn(C(=O)CC(=O)Nc3cccc(C)c3)c2-c2ccccc2)cc1"
result = "> 100 µM"

[[record]]
compound = "CCOP(=O)(OCC)/C(C#N)=C/c1cc(O)ccc1O"
result = "> 100 µM"

[[record]]
compound = "CCCCCCCSCC1OC(n2cnc3c(N)ncnc32)C(O)C1O (stereo unspecified)"
result = "58 µM"


input: Report TGI for `COc1cc(CCNc2nc3cc(N)cc(N)c3nc2-c2ccccc2)cc(OC)c1`
output: 3.44 µM

input: Report TGI for `Cc1cccc2c1NC(=O)C2(c1ccc(O)cc1)c1ccc(O)cc1`
output: 27.6 µM

input: Report TGI for Nc1ccn(CC(CO)CC(c2ccccc2)P(=O)(O)O)c(=O)n1 (stereo unspecified)
output: > 100 µM

input: Report TGI for COC(=O)c1c2c(cc3c1CC1(C3)Cc3ccc4c(c3C1=O)CCC4)CCC2 (stereo unspecified)
output: > 70.6 µM

input: Report TGI for `Nc1nc(Sc2ccc([N+](=O)[O-])cn2)c2[nH]cnc2n1`
output: 38.7 µM

input: Report TGI for `O=C(Nc1ccc(Cl)cc1F)c1cc(Cl)ccc1O`
output: 0.553 µM

input: Report TGI for `Cc1ccc(N=Nc2c(C)nn(C(=O)CC(=O)Nc3ccc(Cl)cc3)c2C)cc1C`
output: 64.3 µM

input: Report TGI for `O=c1nc(-c2ccccc2)scc1-c1ccccc1`
output: > 100 µM

input: Report TGI for `CC#CC(=O)N[C@H]1CCCN(c2c(F)cc(C(N)=O)c3[nH]c(C)c(C)c23)C1`
output: 64.7 µM

input: Report TGI for `O=C1c2cscc2C(=O)c2c(OCc3ccccc3)ccc(OCc3ccccc3)c21`
output: > 100 µM
